- assay_details: self-splicing fitness, log relative to wild type (ln ratio); higher = more splicing; Tetrahymena group I intron in knt gene, E. coli kanamycin selection, DiMSum; sequences stand for … in CUCUCU…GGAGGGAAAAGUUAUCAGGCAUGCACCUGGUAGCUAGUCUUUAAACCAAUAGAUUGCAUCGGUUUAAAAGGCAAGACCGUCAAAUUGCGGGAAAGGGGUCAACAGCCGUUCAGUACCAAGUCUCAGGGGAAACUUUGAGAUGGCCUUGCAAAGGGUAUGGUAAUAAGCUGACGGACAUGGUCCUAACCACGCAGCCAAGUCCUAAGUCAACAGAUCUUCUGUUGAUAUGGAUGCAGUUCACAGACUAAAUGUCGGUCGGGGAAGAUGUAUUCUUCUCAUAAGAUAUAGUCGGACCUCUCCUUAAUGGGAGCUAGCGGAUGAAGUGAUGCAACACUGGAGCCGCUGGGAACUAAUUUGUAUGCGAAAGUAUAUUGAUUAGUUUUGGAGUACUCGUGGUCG;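 also: selection with 25 µg/mL kanamycin versus none on LB agar overnight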
- measurement_conditions: 30 °C
attribute_measured: self-splicing fitness (ln)

Sample answers from the record:
CACUAGCAAUAUUACGUGAU = -3.32
UGGUAGCAAUAUUACGACAA = -0.344
AGCGAGCAAUAUUACGUUAA = -3.86
GCCGAGCAAUAUUACGCAAG = -2.91
UGAAAGCAAUAUUACGGAGU = -3.82
AUGAAGCAAUAUUACGGAAC = -0.855

I'm hoping you can list self-splicing fitness (ln) for every sequence here, please.
1. CCUGAGCAAUAUUACGUAUU
2. AGAGAGCAAUAUUACGGUGA
3. GGGGAGCAAUAUUACGUCUU
4. CAUUAGCAAUAUUACGAAAU
5. GCUCAGCAAUAUUACGAAAA

output:
1. -2.38
2. -3.54
3. -1.91
4. -3.12
5. -0.758

Need self-splicing fitness (ln) for each of these sequences.
1. GAAGAGCAAUAUUACGUCGC
2. CCUUAGCAAUAUUACGUUCC
3. CCCAAGCAAUAUUACGCGUA
4. UCAGAGCAAUAUUACGUAGU
5. ACGAAGCAAUAUUACGGGGC

output:
1. -2.58
2. -3.14
3. -3.43
4. -3.58
5. -3.36
